Reference for the values: patent US8343475B2

- Tested on: wild-type Salmonella enterica ssp. typhimurium
- Type: cell-based
Residues, ends and D or L forms follow the SMILES beside them.
Each entry below carries its recorded MIC S. typhi.
A number alone suffices; assume µg/mL.

1) CC[C@H](C)[C@H](N)C(=O)N[C@@H](CC(C)C)C(=O)N1CCC[C@H]1C(=O)N[C@@H](Cc1c[nH]c2ccccc12)C(=O)N[C@@H](CCCCN)C(=O)N[C@@H](CCCCN)C(=O)N1CCC[C@H]1C(=O)N[C@@H](Cc1c[nH]c2ccccc12)C(=O)N[C@@H](Cc1c[nH]c2ccccc12)C(=O)N1CCC[C@H]1C(=O)N[C@@H](Cc1c[nH]c2ccccc12)C(=O)N[C@@H](CCCNC(=N)N)C(=O)N[C@@H](CCCNC(=N)N)C(N)=O [HH113, ILPWKKPWWPWRR] (H-ILPWKKPWWPWRR-NH2; N-terminus assumed) | 62

// query Answer with the recorded MIC S. typhi for the compound listed here: CC[C@H](C)[C@H](NC(=O)[C@H](CCCNC(=N)N)NC(=O)[C@H](Cc1c[nH]c2ccccc12)NC(=O)[C@H](CCCNC(=N)N)NC(=O)[C@@H](N)C(C)C)C(=O)N[C@@H](CCCNC(=N)N)C(=O)N[C@H](C(=O)N[C@@H](C)C(=O)N[C@H](C(=O)N[C@H](C(=O)N[C@@H](CCCNC(=N)N)C(=O)N[C@@H](C)C(N)=O)[C@@H](C)CC)C(C)C)C(C)C [HH4, VRWRIRVAVIRA] (H-VRWRIRVAVIRA-NH2)
// result 6

// query Hello, please tell me recorded MIC S. typhi for this one: CC[C@H](C)[C@H](NC(=O)[C@H](CCCNC(=N)N)NC(=O)[C@H](Cc1ccccc1)NC(=O)[C@H](CCCNC(=N)N)NC(=O)[C@@H](N)C(C)C)C(=O)N[C@@H](CCCNC(=N)N)C(=O)N[C@H](C(=O)N[C@@H](C)C(=O)N[C@H](C(=O)N[C@H](C(=O)N[C@@H](CCCNC(=N)N)C(=O)N[C@@H](C)C(N)=O)[C@@H](C)CC)C(C)C)C(C)C [HH3, VRFRIRVAVIRA] (H-VRFRIRVAVIRA-NH2)
// result 6
